The origin of these recorded values is the supplement of paper PMC9170038.

A collection of sequences and their measured apparent KD of MS2 coat protein
- Tested on: MS2 coat protein
- Assay Comment: apparent KD of MS2 coat protein; designed switch direction (-1 OFF switch, 1 ON switch): -1; higher = weaker reporter binding
- Condition Set: input ligand: none
Your answer should be a plain number; it is taken to be in nM.

Input line: Query: apparent KD of MS2 coat protein; subject: AGUACUAACACGAUAGUGUUAGUACAAUAAGCUUGUGAAACAUGAGGAUCACCCAUGUCCUCAUAAGCUCGUCUUAU [salish99_TOv2_r3_030] (Eterna round: R96, puzzle: Sensor v3, turn-off variant 2)
Output line: 17.3

Input line: Same question, UAUUCACAUGAGGAUCACCCAUGUCAGGAUAUGCUCGAUAUAUGGAAACAUAUAUCGAGCAGAAGGGACUAGCG [Jieuxxlusion 8 - Jieux - Exclusion 1] (Eterna round: R97, puzzle: Exclusion 1) this time
Output line: 41.2

---

- Test system: MS2 coat protein
- Assay Comment: apparent KD of MS2 coat protein; designed switch direction (-1 OFF switch, 1 ON switch): 1; higher = weaker reporter binding
- Condition Set: Eterna round: R95; input ligand: FMN 200 uM
Note: every record was labeled by where its apparent KD of MS2 coat protein sits among interval 1: < 30 nM; interval 2: ≥ 30 nM and < 80 nM; interval 3: ≥ 80 nM

Below, 5 sequences whose answers are already recorded.
- Seq: "GCCCAUAGUAUAUGGAUACAAGCUUUUUGACAUGAGGAUCACCCAUGUACUCGUCUUAUGUGCAGUCCGUAGACUGC [JL-shm-2.20 Brourd mod] (puzzle: Sensor for hsa-mir-208a)"
  Label Class: "interval 1"
- Seq: "AGAAAACAUGAGGAUCACCCAUGUAUAGUGAAUACAGGAUAUCACCAACGGAAUAGUCGGUGAGAAGGGUGAUCGC [Zaxelate] (puzzle: Same State 1)"
  Label Class: "interval 1"
- Seq: "AGUCCAGCCAGAGCUGGACAAAAGCAUGUACAUGAGGAUCACCCAUGUCAUGUACAAGCUUUUUGCUCGUCUUAAAA [Mat - hsa-mir-208a - Mod of JL - D2] (puzzle: Sensor for hsa-mir-208a)"
  Label Class: "interval 3"
- Seq: "GAGGAUGAUUUACAGGAUAUAUAGGAGAUGACAUGAGGAUCACCCAUGUAAGAGAGAGGAGGGAGAUAGAAGGGUAAGGGAUGUG [JR_SS2_Sub42] (puzzle: Same State 2)"
  Label Class: "interval 2"
- Seq: "UUAAAACAUGAGGAUCACCCAUGUCAACAAAGUCGAGGAUAUGGGCAAAUAAAAUAAGAACCAGAAGGCGAAUAAA [salish99_SS1_r3_002] (puzzle: Same State 1)"
  Label Class: "interval 2"

Input line: Band assignment needed for AUAAGUUCGAUGCUCGUCUCUCCGUACAAACAUGAGGAUCACCCAUGUGAUUGGGCAAUAGCCCAAUCAGUAUGACC [Gemaa] (puzzle: Sensor for hsa-mir-208a) please.
Output line: interval 2

Input line: Same question, GGAGUCGGCACUGAGGAUAUUCAUAUUUAAACAUGAGGAUCACCCAUGUAGGCCAGAAGGCCUUGGGAGAAGGCAGGUCGGCUCG [salish99_ss2_r3_084] (puzzle: Same State 2) this time
Output line: interval 1

Input line: Same question, ACAGAGGGAAGACAGGAUAUUCGCGAUGGCACAUGAGGAUCACCCAUGUUUUGAGCACAUAAACAGAAGAAGGGUUAAAACUCAG [Veceanve] (puzzle: Same State 2) this time
Output line: interval 1

Input line: Same question, ACAAGACAUGAGGAUCACCCAUGUCCCAAUGACACAGGAUAUCGGUAGGCAUAGCCUACGCGAGAAGGGUGACUUC [Same State 1 - Mod of Vinnie Gere v.1] (puzzle: Same State 1) this time
Output line: interval 3

Input line: Same question, GGGUGUGGAAGGAAAGAUAGGAAAAGGAAACAUGAGGAUCACCCAUGUGAAGGAAGAAAGGGAGCUCGUCUUAUAAG [JR_SHM208A_Sub001] (puzzle: Sensor for hsa-mir-208a) this time
Output line: interval 1

Input line: Same question, GAAUAACAUGAGGAUCACCCAUGUAAUAUAAUGGGAGGAUAUCUGAAUUAAUUAUAUUAAGGAGAAGGCCUAUAUG [Mat - Same State 1 - Mod of Eli - D54] (puzzle: Same State 1) this time
Output line: interval 2

Input line: Same question, GGUCCAGCCUGAGCUGGACAAAAGCAUGUACAUGAGGAUCACCCAUGUUCAUGUACAAGCUUUUUGCUCGUCUUACU [salish99_208a_r3_085] (puzzle: Sensor for hsa-mir-208a) this time
Output line: interval 3

Input line: Same question, UCAACUUCUUUUAGUGUGUUGCCAGUUUUACAUGAGGAUCACCCAUGUUAAGUAUUGUGGUAUUUUGUUCGUCUUAA [JR_SHM208A_Sub073] (puzzle: Sensor for hsa-mir-208a) this time
Output line: interval 1

Input line: Same question, GGGCCAGCUUGUGCUGGGCCUUCGCAUGCACAUGAGGAUCACCCAUGUCGUGUACAUGCUUGGUGCCCGUCUUUAAA [Photon Torp-13] (puzzle: Sensor for hsa-mir-208a) this time
Output line: interval 3
